Where these numbers come from: paper PMC3662613

experiment: Plasma protein binding; assay type: in vitro ADME; settings: human
readoutKind: fraction unbound at 1 μM

INSERT INTO results (compound, val) VALUES
  ('c1ccc(CNc2nc(N3CCOc4ccccc43)nc3c2CCCC3)cc1 [ML241]', 0.0003),
  ('COc1cccc2c(NCc3ccccc3)nc(-n3c(N)nc4ccccc43)nc12 [ML240]', 0.0047);

* * *

target: 5-HT5a (Homo sapiens); assay: CNS panel binding; details: 5HT5a receptor
Sequence (P47898 whole entry, species assumed): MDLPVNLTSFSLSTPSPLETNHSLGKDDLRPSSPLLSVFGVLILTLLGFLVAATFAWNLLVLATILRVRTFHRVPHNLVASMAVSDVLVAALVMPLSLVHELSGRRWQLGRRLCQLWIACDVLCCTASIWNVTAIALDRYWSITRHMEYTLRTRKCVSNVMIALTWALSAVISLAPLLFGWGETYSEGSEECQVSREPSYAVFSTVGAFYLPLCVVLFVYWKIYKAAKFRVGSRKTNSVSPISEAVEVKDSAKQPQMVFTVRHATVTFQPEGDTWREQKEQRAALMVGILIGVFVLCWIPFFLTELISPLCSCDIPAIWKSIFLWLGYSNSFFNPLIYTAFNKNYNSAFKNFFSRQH
pKi: −log10 of the molar value.
readoutKind: pKi

INSERT INTO measurements (linenotation, measurementtarget, readoutkind, val) VALUES
  ('COc1cccc2c(NCc3ccccc3)nc(-n3c(N)nc4ccccc43)nc12', '5-HT5a (Homo sapiens)', 'pKi', 5.60);

* * *

assay: Plasma protein binding; assay type: in vitro ADME; settings: human
// fraction unbound at 10 μM lookup, one value per entry
readoutKind: fraction unbound at 10 μM

INSERT INTO assay_data (linenotation, val) VALUES
  ('c1ccc(CNc2nc(N3CCOc4ccccc43)nc3c2CCCC3)cc1', 0.0005),
  ('COc1cccc2c(NCc3ccccc3)nc(-n3c(N)nc4ccccc43)nc12', 0.0029);

* * *

molecular target: p97 ATPase (Homo sapiens, UniProt P55072); assay: p97 ATPase assay; format: biochemical; settings: IC50 ATPase, triplicate, mean ±SD
Sequence (P55072 whole entry): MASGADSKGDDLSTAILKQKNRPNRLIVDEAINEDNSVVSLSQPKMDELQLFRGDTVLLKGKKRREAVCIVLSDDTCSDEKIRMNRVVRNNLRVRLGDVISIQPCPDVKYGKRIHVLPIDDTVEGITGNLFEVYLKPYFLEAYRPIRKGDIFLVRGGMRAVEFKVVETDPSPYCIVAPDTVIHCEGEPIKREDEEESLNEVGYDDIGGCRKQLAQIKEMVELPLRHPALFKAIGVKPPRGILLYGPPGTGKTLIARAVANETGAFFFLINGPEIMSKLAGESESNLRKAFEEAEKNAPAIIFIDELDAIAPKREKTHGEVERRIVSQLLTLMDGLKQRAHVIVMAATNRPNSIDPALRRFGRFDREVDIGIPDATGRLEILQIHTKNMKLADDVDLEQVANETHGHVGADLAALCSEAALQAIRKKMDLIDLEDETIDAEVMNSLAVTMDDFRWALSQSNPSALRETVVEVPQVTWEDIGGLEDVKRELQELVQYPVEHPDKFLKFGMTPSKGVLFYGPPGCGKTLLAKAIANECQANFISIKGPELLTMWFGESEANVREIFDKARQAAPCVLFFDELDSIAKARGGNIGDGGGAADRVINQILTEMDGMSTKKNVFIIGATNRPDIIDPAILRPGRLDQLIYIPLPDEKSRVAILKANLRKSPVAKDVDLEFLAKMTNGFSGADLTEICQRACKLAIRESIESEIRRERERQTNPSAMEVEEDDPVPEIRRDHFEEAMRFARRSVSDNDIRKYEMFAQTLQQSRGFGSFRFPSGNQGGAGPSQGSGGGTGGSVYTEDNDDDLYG
readoutKind: IC50 (nM)

INSERT INTO measurements (linenotation, readoutkind, uom, val) VALUES
  ('COc1cccc2c(NCc3ccccc3)nc(-n3c(N)nc4c(F)cccc43)nc12', 'IC50', 'nM', 43),
  ('c1ccc(CNc2nc(NCc3ccccc3)c3ccccc3n2)cc1', 'IC50', 'nM', 1600),
  ('COc1cccc2c(NCc3ccccc3)nc(-n3c(N)nc4c(C)cccc43)nc12', 'IC50', 'nM', 45),
  ('COc1cccc2c(NCc3ccccc3)nc(-n3c(N)nc4cccc(F)c43)nc12', 'IC50', 'nM', 500);

* * *

assay: Plasma stability; assay type: in vitro ADME; settings: mouse
readoutKind: remaining at 3 h (%)

INSERT INTO results (linenotation, uom, val) VALUES
  ('c1ccc(CNc2nc(N3CCOc4ccccc43)nc3c2CCCC3)cc1', '%', 100),
  ('COc1cccc2c(NCc3ccccc3)nc(-n3c(N)nc4ccccc43)nc12', '%', 100);

* * *

test: Plasma stability; format: in vitro ADME; details: human
readoutKind: remaining at 3 h (%)

INSERT INTO assay_data (compound, readoutkind, uom, val) VALUES
  ('c1ccc(CNc2nc(N3CCOc4ccccc43)nc3c2CCCC3)cc1 [ML241]', 'remaining at 3 h', '%', 100),
  ('COc1cccc2c(NCc3ccccc3)nc(-n3c(N)nc4ccccc43)nc12 [ML240]', 'remaining at 3 h', '%', 100);

* * *

assay: Aqueous solubility; type: physicochemical; conditions: aqueous buffer, pH 6.2, aqueous buffer
// solubility lookup, one value per entry
readoutKind: solubility (µg/mL)

INSERT INTO measurements (molecule, val) VALUES
  ('COc1cccc2c(NCc3ccccc3)nc(-n3c(N)nc4ccccc43)nc12 [ML240]', 0.33),
  ('c1ccc(CNc2nc(N3CCOc4ccccc43)nc3c2CCCC3)cc1 [ML241]', 0.13);
